tested on: 171881-019-R-J1-PDC tumor spheroids, viability; assay: Anticancer human tumor 171881-019-R-J1-PDC patient-derived invasive breast carcinoma cell line growth inhibition [GQUAD]; settings: second compound 0.316 µM; first compound 1 µM; active compounds read low; spheroids with HUVEC and MSC
parameter: viability, T/C (%)
Record the value in %, omitting the unit from your answer.

Guide cases for viability, T/C, answers given:
COc1ncnc(C2CC2)c1-c1ncc2cnn(Cc3ccc(-c4nc(C(F)(F)F)cn4C(C)C)cc3)c2n1 + Cc1[nH]c2ccc(F)cc2c1-c1nc2c3cccnc3c3ncccc3c2[nH]1; 72
O=C(c1cc(Cc2n[nH]c(=O)c3ccccc23)ccc1F)N1CCN(C(=O)C2CC2)CC1 + Cc1cnc(CNC(=O)c2c(=O)c3ccc(N4CCCN(C)CC4)nc3n3c2sc2ccccc23)cn1; 65
CC1COCCN1c1cc(-c2ccnn2C)c2ccnc(-c3ccn[nH]3)c2n1 (stereo not given) + CN(C)c1ccc(Nc2c3ccc(NC(=O)CCN4CCCC4)cc3nc3cc(NC(=O)CCN4CCCC4)ccc23)cc1; 3.25
COc1cc(C2c3cc4c(cc3C(OC3OC5COC(C)OC5C(O)C3O)C3COC(=O)C23)OCO4)cc(OC)c1O (stereo not given) + CN(C)c1ccc(Nc2c3ccc(NC(=O)CCN4CCCC4)cc3nc3cc(NC(=O)CCN4CCCC4)ccc23)cc1; 56.5

Then there is this compound:
The value of viability, T/C measured for the compound C=CCn1c(=O)c2cnc(Nc3ccc(N4CCN(C)CC4)cc3)nc2n1-c1cccc(C(C)(C)O)n1 + Cc1[nH]c2ccc(F)cc2c1-c1nc2c3cccnc3c3ncccc3c2[nH]1 turned out to be 28.1

====

system: 171881-019-R-J1-PDC tumor spheroids, viability; experiment: Anticancer human tumor 171881-019-R-J1-PDC cell line growth inhibition [GQUAD]; conditions: second compound 0.0316 µM; first compound 3.16 µM; active compounds read low; spheroids with HUVEC and MSC;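 note: spheroids exposed to compounds for 7 days; 100% = DMSO vehicle control viability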
Reported viability, T/C values follow for various molecules
The figure you give is taken to be in %; do not add the unit.

The examples below pair each entry with its known result.
COc1ccc([C@@H](O)c2cc(-c3ncnc4cc(N5CCOCC5)ccc34)c(F)cc2Cl)nn1 + Cc1cnc(CNC(=O)c2c(=O)c3ccc(N4CCCN(C)CC4)nc3n3c2sc2ccccc23)cn1; 9.13
CC1COCCN1c1cc(-c2ccnn2C)c2ccnc(-c3ccn[nH]3)c2n1 (stereo not given) + CN(C)c1ccc(Nc2c3ccc(NC(=O)CCN4CCCC4)cc3nc3cc(NC(=O)CCN4CCCC4)ccc23)cc1; 1.79
CC1COCCN1c1cc(C2(S(C)(=N)=O)CC2)nc(-c2ccnc3[nH]ccc23)n1 (stereo not given) + Cc1cnc(CNC(=O)c2c(=O)c3ccc(N4CCCN(C)CC4)nc3n3c2sc2ccccc23)cn1; 15.5
C=CCn1c(=O)c2cnc(Nc3ccc(N4CCN(C)CC4)cc3)nc2n1-c1cccc(C(C)(C)O)n1 + CN(C)c1ccc(Nc2c3ccc(NC(=O)CCN4CCCC4)cc3nc3cc(NC(=O)CCN4CCCC4)ccc23)cc1; 21.3

Now let's try a different one.
Item: O=C(NO)c1cnc(N2CCN(S(=O)(=O)c3ccc4ccccc4c3)CC2)nc1 + CN(C)c1ccc(Nc2c3ccc(NC(=O)CCN4CCCC4)cc3nc3cc(NC(=O)CCN4CCCC4)ccc23)cc1 | viability, T/C: 0.11
